test system: CP185; assay: qHTS profiling for inhibitors of Plasmodium falciparum proliferation (AID 504749); also: nearly all actives have a fitted effect of over 60% in size; also: potency is read from the fitted curve at half-maximal effect; details: P. falciparum in erythrocytes, SYBR Green DNA, 72 h; series mostly up to 28.7 µM
Results filed as inconclusive are left out. The source made the active and inactive calls. Calls follow the shape of the dose curve; as a rule, active = well fitted inhibition curve with a large enough effect; inconclusive = small, poorly fitted or top-dose-only effect; inactive = flat fitted curve, though single readings scatter.
reported property: Potency

Take a look at these entries with their results.
C[C@]12CC[C@H]3c4ccc(O)cc4CC[C@@H]3[C@H]1CC[C@@H]2OC(=O)CCC1CCCC1 : inactive
Cc1onc(-c2c(F)cccc2Cl)c1C(=O)N[C@@H]1C(=O)N2[C@H]1SC(C)(C)[C@H]2C(=O)O : inactive
C[C@]12CC[C@H]3c4ccc(O)cc4CC[C@@H]3[C@H]1CC[C@@H]2OP(=O)(O)O : inactive
N[C@H](COP(=O)(O)O)C(=O)O : inactive

Lookup result for O=C(O)[C@@H](S)[C@H](S)C(=O)O ; measured Potency: 11.2 µM (active)

---

assay: Stat Signaling Pathway (AID 446); conditions: ME-180 (cervical carcinoma) SIE beta-lactamase reporter, IL-6 stimulated, 5 h; at 7.69 µM (top of the series) unless noted;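 also: ME-180 cervical cancer cells given 40 pM IL-6 alongside compound; SIE-controlled beta-lactamase reporter measured as 460/530 nm FRET emission ratio; % is scaled to controls: 0 for no effect and ±100 for the full control effect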
Records with an inconclusive call do not appear. Activity calls are given as the source filed them. The call rests on the fitted dose curve; in most records, active means well fitted curve in either direction with a large enough effect (not every such curve was filed as active); inconclusive means small, poorly fitted or top-dose-only effect, or another doubt; inactive means flat fitted curve, though single readings scatter.
Kindly supply the reported activity, negative = inhibition values for the records listed here.

Take a look at these entries with their results.
CCCCN(c1ccccc1)c1ncnc2c1cnn2C : 5.06% (inactive)
O=[N+]([O-])c1ccc(CSCc2ccc(Cl)cc2)cc1 : 11.6% (inactive)
Cc1cc(CN2CCCCC2)c(O)c(CN2CCCCC2)c1 : -1.32% (inactive)
C[C@@H](N)/C(N)=N/O : 5.63% (inactive)

Your task in this section: give activity, negative = inhibition for each listed record.
1. N#C/C(=C\NC(=S)c1ccncc1)c1nc2ccccc2s1
2. O=C(O)C(Sc1ccc(Cl)cc1)Sc1ccc(Cl)cc1
3. CC(C)NC1(C(N)=O)CCN(Cc2ccccc2)CC1

Key:
["11.3% (inactive)", "-29.3% (inactive)", "-5.76% (inactive)"]

---

target: Lysosomal acid glucosylceramidase (Homo sapiens) (UniProt P04062); test: Glucocerebrosidase-p2 (AID 348); conditions: purified GBA, blue fluorogenic substrate, 40 min; also: potency is read from the fitted curve at half-maximal effect
Sequence (P04062 whole entry, looked up): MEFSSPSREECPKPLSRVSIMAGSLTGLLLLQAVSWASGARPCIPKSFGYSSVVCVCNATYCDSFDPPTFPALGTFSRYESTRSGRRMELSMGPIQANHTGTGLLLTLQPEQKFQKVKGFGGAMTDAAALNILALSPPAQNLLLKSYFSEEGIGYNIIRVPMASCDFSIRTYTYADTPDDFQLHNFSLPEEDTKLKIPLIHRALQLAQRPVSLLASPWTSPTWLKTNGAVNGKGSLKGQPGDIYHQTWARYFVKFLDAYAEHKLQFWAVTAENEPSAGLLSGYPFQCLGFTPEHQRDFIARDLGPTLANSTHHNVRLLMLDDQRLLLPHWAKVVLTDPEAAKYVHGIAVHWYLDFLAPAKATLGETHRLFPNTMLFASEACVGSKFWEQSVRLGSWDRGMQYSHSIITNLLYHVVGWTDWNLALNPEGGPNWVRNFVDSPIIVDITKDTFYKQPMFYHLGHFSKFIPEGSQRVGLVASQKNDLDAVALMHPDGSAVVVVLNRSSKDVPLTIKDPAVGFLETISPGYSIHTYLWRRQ
Calls of active or inactive are those of the source. Rule as the data show it: active = potency below about 10 µM; inactive = the rest.
Kindly supply the reported Potency values for the records listed here.

Take a look at these entries with their results.
N#CCCSC(=S)[C@H]1CCCC1=N : > 11.4 µM (inactive)
Cc1cc2ccc(OC(=O)c3ccc(N=C(N)N)cc3)cc2oc1=O : > 11.4 µM (inactive)
c1cc(CSc2ncnc3nc[nH]c23)ccn1 : > 11.4 µM (inactive)
Cn1cnc([N+](=O)[O-])c1Sc1nc(N)nc2c1ncn2[C@H]1C[C@H](O)[C@@H](CO)O1 : > 11.4 µM (inactive)
O=C(O)CSCC(=O)c1ccccc1 : > 11.4 µM (inactive)

Your task in this section: give Potency for each listed record.
1. O=C(c1ccc([N+](=O)[O-])cc1)[C@@H](Br)[C@@H](Br)c1ccnc2ccccc12
2. C[N+]1([C@H](CO)Cc2c[nH]c3ccccc23)Cc2ccccc2C1
3. S=c1[nH]nc(SCc2ccccc2Cl)c2[nH]cnc12
4. Nc1nc(-c2cccc([N+](=O)[O-])c2)cc(-c2cc(-c3cccc([N+](=O)[O-])c3)nc(N)n2)n1
5. c1c[nH]c(CN2CCOCC2)n1
6. NC(=O)NC(=O)[C@H]1CCCC[C@@H]1C(=O)O
7. N=C(N)SCCON1C(=O)c2ccccc2C1=O

Key:
1. > 11.4 µM (inactive)
2. > 11.4 µM (inactive)
3. > 11.4 µM (inactive)
4. > 11.4 µM (inactive)
5. > 11.4 µM (inactive)
6. > 11.4 µM (inactive)
7. > 11.4 µM (inactive)

Your task in this section: give Potency for each listed record.
1. CCNc1ncc2nc(C)c(=O)n(Cc3cccc(OC)c3)c2n1
2. O=C(O)c1ccc([N+]2=Cn3c(nc4ccccc43)C2)cc1
3. NC(N)=NC(N)=Nc1c(F)c(F)c(F)c(F)c1F

Key:
["> 11.4 µM (inactive)", "> 11.4 µM (inactive)", "> 11.4 µM (inactive)"]

Your task in this section: give Potency for each listed record.
1. O=C(O)[C@@H]1CS[C@@]2(CCCN(Cc3ccccc3)C2)N1
2. C[C@H]1O[C@@H](CC(=O)O)Cc2c1c(O)c1c(O)cc(-c3cc(=O)c4c(=O)c5c(c(=O)c=4c3=O)C[C@H](CC(=O)O)O[C@@H]5C)c(O)c1c2O
3. OCCNc1ncnc2c1ncn2[C@@H]1O[C@@H](CO)[C@H](O)[C@@H]1O
4. O=c1c(-c2ccc(F)cc2)nc2cnc(Oc3ccccc3)nc2n1C[C@H]1CCCO1
5. O=C(O)[C@H]1O[C@H]1C(=O)O
6. NS(=O)(=O)c1nc(S(=O)(=O)O)c2[nH]cnc2n1
7. Cc1ncc(CSc2ccccc2N)c(CO)c1O
8. O=C(c1cc(C(F)(F)F)cc(C(F)(F)F)c1)N1CCC[C@@]2(CCN(Cc3ccccc3)C2)C1

Key:
["> 11.4 µM (inactive)", "> 11.4 µM (inactive)", "> 11.4 µM (inactive)", "> 11.4 µM (inactive)", "> 11.4 µM (inactive)", "> 11.4 µM (inactive)", "> 11.4 µM (inactive)", "> 11.4 µM (inactive)"]

Your task in this section: give Potency for each listed record.
1. S=C1N[C@H](c2ccccc2)N[C@H](c2ccccc2)S1
2. c1cc(NNc2cccc(-c3nn[nH]n3)c2)cc(-c2nn[nH]n2)c1
3. O=C(O)C1CC2(C1)CC(C(=O)O)C2 (stereo not given)
4. [Cu].[NH-][C@H](CC(=O)O)C(=O)O.[NH-][C@H](CC(=O)O)C(=O)O
5. COc1ccc(Oc2ncc3nc(-c4ccccc4)c(=O)n(CCC#N)c3n2)cc1
6. CC(CO)(CO)Nc1ncnc2ccccc12
7. O=S(=O)(O)c1ccc2c(N=Nc3cccc4ccccc34)c(O)c(S(=O)(=O)O)cc2c1

Key:
1: > 11.4 µM (inactive); 2: > 11.4 µM (inactive); 3: > 11.4 µM (inactive); 4: > 11.4 µM (inactive); 5: > 11.4 µM (inactive); 6: > 11.4 µM (inactive); 7: > 11.4 µM (inactive)

Your task in this section: give Potency for each listed record.
1. CCN(CC)C[C@@H](O)c1ccc2ccc3ccccc3c2c1
2. NCCOC[C@H](N)C(=O)O

Key:
1: > 11.4 µM (inactive); 2: > 11.4 µM (inactive)

Your task in this section: give Potency for each listed record.
1. COc1ccc2cc(C(=O)CCC(=O)O)ccc2c1
2. C[C@@]12CCC(=O)C=C1CC[C@H]1[C@@H]2[C@@H](O)C[C@]2(C)[C@@H]1CC[C@@]2(O)C(=O)CO
3. C[C@@H](CCC(=O)O)C(=O)O
4. C/C(=N\NC(=O)c1ccncc1)c1ccc2ccccc2c1O

Key:
> 11.4 µM (inactive)
> 11.4 µM (inactive)
> 11.4 µM (inactive)
> 11.4 µM (inactive)

Your task in this section: give Potency for each listed record.
1. CC[C@H](CN(C)C)C(=O)c1ccco1
2. c1cncc(-c2cc(-c3cc(-c4cccnc4)n[nH]3)[nH]n2)c1
3. COc1cccc(Nc2ncc3nc(CCc4ccccc4)c(=O)n(C[C@H]4CCCO4)c3n2)c1
4. COc1cc2c3cc1Oc1c(OC)c(OC)cc4c1[C@@H](Cc1ccc(O)c(c1)Oc1ccc(cc1)C[C@@H]3N(C)CC2)CN(C)C4
5. Oc1cccc2ccc(SSc3ccc4cccc(O)c4n3)nc12

Key:
> 11.4 µM (inactive)
> 11.4 µM (inactive)
> 11.4 µM (inactive)
> 11.4 µM (inactive)
> 11.4 µM (inactive)

Your task in this section: give Potency for each listed record.
1. O=C(CN1C(=O)c2ccccc2C1=O)[C@@H](O)CN1C(=O)c2ccccc2C1=O
2. O=C(O)c1ccc(C(=O)c2ccccc2C(=O)O)cc1C(=O)O
3. COCCn1c(=O)c(-c2ccc(OC)cc2)nc2cnc(OC)nc21
4. Cc1cc(Cl)ccc1OCC(=O)Nc1nc(N)nc(N)n1

Key:
> 11.4 µM (inactive)
> 11.4 µM (inactive)
> 11.4 µM (inactive)
> 11.4 µM (inactive)
